assaySummary: TZMbI assay for cell safety (cell viability and growth, CytoTox Glo)
reportedConditions: human, TZMbI cells, 10 μM, Experiment 2A; read-out: % decrease in viability compared to 0.1% DMSO vehicle based on viable cell luminescence
measurementLabel: cytotoxicity at 10 μM

Worked examples, 4 compounds total:
| compound | experimentalValue |
| --- | --- |
| COc1ccc(Cl)cc1-c1oc2ccccc2c(=O)c1O | 1.57% |
| COc1ccccc1-c1cc(=O)c2c(O)cccc2o1 [Compound 12a] | 43% |
| CCOc1ccc(Br)cc1-c1oc2ccccc2c(=O)c1O | 0.1% |
| COc1ccc(Br)cc1-c1cc(=O)c2c(O)cccc2o1 [Compound 12b] | 10.4% |

For the next question, use this compound.
Q: Entry `COc1ccc(Br)cc1-c1oc2ccccc2c(=O)c1O` : reported cytotoxicity at 10 μM = ?
Ans: -19%
